# assayed system: HuR-ARE^Msi1 interaction (full length HuR) (Homo sapiens, UniProt Q15717)
# Construct: full length HuR (326 residues)
# Sequence (Q15717 whole entry): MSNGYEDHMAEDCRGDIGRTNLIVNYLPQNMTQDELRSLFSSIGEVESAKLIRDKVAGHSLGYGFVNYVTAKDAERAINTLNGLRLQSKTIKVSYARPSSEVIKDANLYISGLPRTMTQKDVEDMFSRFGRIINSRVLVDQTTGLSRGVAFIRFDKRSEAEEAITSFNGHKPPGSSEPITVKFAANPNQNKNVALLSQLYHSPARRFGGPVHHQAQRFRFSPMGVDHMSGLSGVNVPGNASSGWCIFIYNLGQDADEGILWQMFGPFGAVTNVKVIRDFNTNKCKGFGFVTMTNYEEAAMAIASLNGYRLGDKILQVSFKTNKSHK
# assay notes: FP competition assay, HuR-ARE^Msi1 binding
# conditions: 10 nM HuR, 2 nM fluorescein-labeled ARE^Msi1; n = 3; read-out: IC50, inhibition of HuR-ARE^Msi1 interaction
# Procedure: Synthetic RNA oligos were from Dharmacon. […] FP competition assay for screening and hit validation were carried out as reported previously. […] Measurements were taken using a BioTek Synergy H4 hybrid plate reader (Biotek, Winooski, VT) after incubating for 2 hours at room temperature. […] Percent inhibition was calculated by comparing to the DMSO (0% inhibition) and labeled free RNA only (100% inhibition) controls. […]
value kind: pIC50
Numbers only, as −log10 of the molar value.

Consider the compound CC[C@H](C)/C=C(C)/C=C/C1=CC2=C(Br)C(=O)C(C)(OC(C)=O)C(=O)C2=CO1 (stereo partly shown) and give its measured pIC50.
5.96
